Reference source: the Deep4Chem optical property database

- assay.info: solvent given as SMILES
- condition.details: in CS(C)=O
Reported emission maximum values are given for each entry in this list.
Record the value in nm, omitting the unit from your answer.

// below: answered compounds
| compound | recorded.result |
| --- | --- |
| Oc1ccc(/N=C/c2ccccc2Oc2ccccc2)cc1 | 418 |
| CCc1ccc(/C=N/c2cc(C(C)C)c(O)cc2C)cc1 | 431 |
| CCC1=C(C)C2=C(C)c3c(C)c(-c4csc(N5CCOCC5)n4)c(C)n3[B-](F)(F)[N+]2=C1C | 539 |
| COC(=O)C(Cc1ccc2oc(-c3ccc(N(C)C)cc3)nc2c1)NC(=O)OC(C)(C)C (stereo unspecified) | 408.5 |
| O=C1c2ccccc2-c2ccc(N3CCN(c4ccccc4)CC3)c3cccc1c23 | 613 |
| Cc1ccc(-c2cc(/C=C/c3ccc(N(c4ccccc4)c4ccccc4)cc3)c(C#N)c(N3CCCCC3)c2)cc1 | 523 |

Turning now to a further record.
State its emission maximum for this compound: `CCOC(=O)CN1C(=O)C2=C(c3ccccc3)N(CC(=O)OCC)C(=O)C2=C1c1ccccc1`
519
